# measurement_description: ATG_NRF2_ARE_CIS: Attagene CIS-FACTORIAL HepG2 Assay for human Nuclear Factor Erythroid 2 Related Factor 2 (NFR2) response to Antioxidant Response Elements (ARE) (AID 2282992)
# setup_conditions: HepG2 Attagene ARE/NRF2 reporter, transcription factor activity; actives raise or lower the signal
The source made the active and inactive calls. The calls were made as follows: active = hit-call score of the fitted dose curve at least 0.9, where 1 is the maximum; inactive = score below 0.9.
Outcomes: Yes = active, No = inactive

[[record]]
molecule = "CC(C)=CCCC(C)CC=O (stereo not given)"
group = "No"

[[record]]
molecule = "NC(=O)c1ccccc1Cl"
group = "Yes"

[[record]]
molecule = "O=Cc1ccc(F)cc1"
group = "No"

[[record]]
molecule = "CCCCCC(=O)OCCc1ccccc1"
group = "No"

[[record]]
molecule = "CC[Si](OC(C)=O)(OC(C)=O)OC(C)=O"
group = "No"

[[record]]
molecule = "CC(=O)[O][Al][O]C(C)=O"
group = "No"

[[record]]
molecule = "CC(=O)OCC=Cc1ccccc1"
group = "Yes"

[[record]]
molecule = "Nc1ccc(F)c([N+](=O)[O-])c1"
group = "No"

[[record]]
molecule = "O=c1oc(=O)c2cc3c(=O)oc(=O)c3cc12"
group = "No"

[[record]]
molecule = "CC(C)CCCCCCCOC(=O)c1ccc(C(=O)OCCCCCCCC(C)C)c(C(=O)OCCCCCCCC(C)C)c1"
group = "No"

[[record]]
molecule = "CNCCO"
group = "No"

[[record]]
molecule = "CC(C)c1ccc(C(C)C)cc1"
group = "Yes"

[[record]]
molecule = "CCCCCCCCC"
group = "No"

[[record]]
molecule = "CCCCO"
group = "No"

[[record]]
molecule = "O=C(OCc1ccccc1)C(=O)OCc1ccccc1"
group = "No"

[[record]]
molecule = "O=[N+]([O-])c1ccc(C=Cc2ccc([N+](=O)[O-])cc2S(=O)(=O)O)c(S(=O)(=O)O)c1"
group = "No"

[[record]]
molecule = "COC(=O)Cc1cccc2ccccc12"
group = "No"

[[record]]
molecule = "COc1nc(C)nc(N)n1"
group = "No"

[[record]]
molecule = "O=C(Nc1ccccc1)c1cc([N+](=O)[O-])ccc1Cl"
group = "Yes"

[[record]]
molecule = "CC(C=O)Cc1ccc(C(C)C)cc1 (stereo not given)"
group = "No"

[[record]]
molecule = "NC(=O)NC1NC(=O)NC1=O (stereo not given)"
group = "No"

[[record]]
molecule = "Cc1ccc(O)c(C(C)(C)C)c1"
group = "Yes"

[[record]]
molecule = "O=C(O)CCCCCCCC(=O)O"
group = "No"

[[record]]
molecule = "C=C(C)C(=O)OCc1ccccc1"
group = "No"

[[record]]
molecule = "c1ccc2sc(SN(C3CCCCC3)C3CCCCC3)nc2c1"
group = "No"

[[record]]
molecule = "Sc1nc(S)nc(S)n1"
group = "No"

[[record]]
molecule = "CO[Si](CCCn1c(=O)n(CCC[Si](OC)(OC)OC)c(=O)n(CCC[Si](OC)(OC)OC)c1=O)(OC)OC"
group = "No"

[[record]]
molecule = "CCOc1ccccc1OCC"
group = "No"

[[record]]
molecule = "Nc1cc([N+](=O)[O-])ccc1Cl"
group = "Yes"

[[record]]
molecule = "C=CC(=O)NCOCC(C)C"
group = "Yes"


###

# measurement_description: ATG_Sox_CIS: Attagene CIS-FACTORIAL HepG2 Assay for human SRY-box transcription factor (SOX) (AID 2282960)
# setup_conditions: HepG2 Attagene cis-factorial SOX reporter, mRNA; actives raise or lower the signal
Calls of active or inactive are those of the source. The calls were made as follows: active = hit-call score of the fitted dose curve at least 0.9, where 1 is the maximum; inactive = score below 0.9.
Outcomes: active, inactive

[[record]]
molecule = "NNc1nc(-c2ccc(N)cc2)cs1"
group = "inactive"

[[record]]
molecule = "N#Cc1ccccc1"
group = "inactive"

[[record]]
molecule = "CC(=O)O[C@]1(C(C)=O)CC[C@H]2[C@@H]3C[C@H](C)C4=CC(=O)CC[C@]4(C)[C@H]3CC[C@@]21C"
group = "inactive"

[[record]]
molecule = "C=C(C)C(=O)O"
group = "inactive"

[[record]]
molecule = "O=C1CCc2ccccc2O1"
group = "inactive"

[[record]]
molecule = "NC(N)=NC(=O)c1nc(Cl)c(N)nc1N"
group = "inactive"

[[record]]
molecule = "CCCCOCCOCCOCCOCCO"
group = "inactive"

[[record]]
molecule = "CC(C#N)(CCC(=O)O)N=NC(C)(C#N)CCC(=O)O (stereo not drawn)"
group = "inactive"

[[record]]
molecule = "CN(C)C(=N)N=C(N)N"
group = "inactive"

[[record]]
molecule = "C=CC[N+](C)(C)CC=C"
group = "inactive"

[[record]]
molecule = "CCCC/C=C\\CCCCCCCCCC=O"
group = "inactive"

[[record]]
molecule = "COc1ccc(OC)c(OC)c1"
group = "inactive"

[[record]]
molecule = "CC(c1cc2ccccc2s1)N(O)C(N)=O (stereo not drawn)"
group = "inactive"

[[record]]
molecule = "O=c1[nH]nnc2ccccc12"
group = "inactive"

[[record]]
molecule = "O=C(Nc1ccccc1)c1cc([N+](=O)[O-])ccc1Cl"
group = "active"

[[record]]
molecule = "CCCCCC(=O)OCCc1ccccc1"
group = "inactive"

[[record]]
molecule = "COc1ccc(O)cc1"
group = "inactive"

[[record]]
molecule = "CCCCCCCCCCCCN"
group = "inactive"

[[record]]
molecule = "O=C1CCCCCCCCCCCCCCO1"
group = "inactive"

[[record]]
molecule = "CC(CN1c2ccccc2Sc2ccccc21)N(C)C (stereo not drawn)"
group = "inactive"

[[record]]
molecule = "CC[C@]12CCCN3CCc4c(n(c5ccccc45)[C@@](O)(C(=O)OC)C1)[C@@H]32"
group = "inactive"

[[record]]
molecule = "C[C@]12CC[C@H]3[C@@H](CCC4=CC(=O)CC[C@@]43C)[C@@H]1CC[C@@H]2C(=O)CO"
group = "inactive"

[[record]]
molecule = "O=C(O)c1cccc([N+](=O)[O-])c1"
group = "inactive"

[[record]]
molecule = "O=C(O)c1cn(C2CC2)c2cc(N3CCNCC3)c(F)cc2c1=O"
group = "inactive"

[[record]]
molecule = "CCCCNC(=O)NS(=O)(=O)c1ccc(C)cc1"
group = "inactive"

[[record]]
molecule = "O=C(O)Cc1cccc2ccccc12"
group = "inactive"

[[record]]
molecule = "FC1(F)C(F)(F)C(F)(F)C2(F)C(F)(C1(F)F)C(F)(F)C(F)(F)C1(F)C(F)(F)C(F)(F)C(F)(F)C(F)(F)C12F (stereo not drawn)"
group = "inactive"

[[record]]
molecule = "Cc1ccc(O)c(C(C)(C)C)c1"
group = "inactive"


###

# study_target: Transcription factor E2F1 (Homo sapiens)
# measurement_description: ATG_E2F_CIS: Attagene CIS-FACTORIAL HepG2 Assay for human E2F Transcription Factor 1 (AID 2282935)
# setup_conditions: HepG2 Attagene cis-reporter, E2F reporter RNA transcripts; actives raise or lower the signal
Activity calls are given as the source filed them. Rule for the calls: active = hit-call score of the fitted dose curve at least 0.9, where 1 is the maximum; inactive = score below 0.9.
Outcomes: y (active), n (inactive)

[[record]]
compound = "CCCCCCCCCCCCOCCO"
group = "n"

[[record]]
compound = "CCCCCCOC(=O)CCCCC"
group = "n"

[[record]]
compound = "CCCCC(CC)COC(=O)/C=C\\C(=O)OCC(CC)CCCC (stereo not drawn)"
group = "y"

[[record]]
compound = "C[C@H]1C[C@@H]2[C@H]([C@@H](O)C[C@@]3(C)[C@H]2CC[C@]3(O)C(=O)CO)[C@@]2(C)C=CC(=O)C=C12"
group = "n"

[[record]]
compound = "OC[C@H]1O[C@H](O[C@]2(CCl)O[C@H](CCl)[C@@H](O)[C@@H]2O)[C@H](O)[C@@H](O)[C@H]1Cl"
group = "n"

[[record]]
compound = "O=C1c2ccccc2C(=O)N1SC1CCCCC1"
group = "n"

[[record]]
compound = "CC1CCC2CC1C2(C)C (stereo not drawn)"
group = "n"

[[record]]
compound = "CCCCCC(CO)CCC (stereo not drawn)"
group = "n"

[[record]]
compound = "C=C(C)C(=O)Nc1ccc(Cl)c(Cl)c1"
group = "n"

[[record]]
compound = "Cc1ccc(Nc2ccc(O)c3c2C(=O)c2ccccc2C3=O)cc1"
group = "n"

[[record]]
compound = "CC1(C)[C@@H]2CC[C@@]1(C)[C@H](O)C2"
group = "n"

[[record]]
compound = "CCc1ccc(C=O)cc1"
group = "n"

[[record]]
compound = "C[Si](O[Si](C)(C)C)O[Si](C)(C)C"
group = "n"

[[record]]
compound = "COc1nc(C)nc(N)n1"
group = "n"

[[record]]
compound = "CC1CC(OC(=O)c2ccccc2O)CC(C)(C)C1 (stereo not drawn)"
group = "n"

[[record]]
compound = "C=C(C)C(=O)O"
group = "n"

[[record]]
compound = "C=CC(=O)NCOCC(C)C"
group = "n"

[[record]]
compound = "CC1=CCC2C(C1)C2(C)C (stereo not drawn)"
group = "n"

[[record]]
compound = "CCC(=O)OCc1ccccc1"
group = "n"

[[record]]
compound = "Nc1cc([N+](=O)[O-])ccc1O"
group = "n"

[[record]]
compound = "CCOc1ccccc1OCC"
group = "n"

[[record]]
compound = "NC(N)=NC(=O)c1nc(Cl)c(N)nc1N"
group = "n"

[[record]]
compound = "CC(CC(C)(C)C)CC(C)(C)CC(C)(C)C (stereo not drawn)"
group = "n"

[[record]]
compound = "CCCC(=O)C(C)=O"
group = "n"

[[record]]
compound = "CCCCCCCCCCCCCCCCCC(=O)OCC(CC)CCCC (stereo not drawn)"
group = "n"

[[record]]
compound = "COc1ccc(OC)c(OC)c1"
group = "n"

[[record]]
compound = "CC(=O)[C@H]1CC[C@H]2[C@@H]3CC=C4C[C@@H](O)CC[C@]4(C)[C@H]3CC[C@]12C"
group = "n"

[[record]]
compound = "CC(C)(CO)[N+](=O)[O-]"
group = "n"


src = PubChem BioAssay (EPA / NIEHS)
